Tested on: c-Abl (mouse)
Measurement description: phosphorylation enrichment, bacterial display (enrichment ratio); higher = better substrate or ligand; peptides without Tyr show the background;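 also: 11-residue human phosphosite peptides and single-mutation variants displayed on the E. coli surface, counted by deep sequencing, each peptide's frequency after selection divided by its frequency in the unselected input library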;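 also: frequency after pTyr selection over input frequency; kinase dosed for 20-30% of maximal phosphorylation in three min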
Categorize each record by its phosphorylation enrichment using one = under 0.6, two = from 0.6 up to 0.9, three = 0.9 and over

{"Ordered residues": "HTKKNYGNSSV [HDX_Y197_A193T]", "System under test": "c-Abl (mouse)", "Category": "one"}
{"Ordered residues": "AEMTGYVMTRW [MAPK13_Y182_V184M]", "System under test": "c-Abl (mouse)", "Category": "two"}
{"Ordered residues": "KRGIDYILWHM [FRMD1_Y225_R228W]", "System under test": "c-Abl (mouse)", "Category": "two"}
{"Ordered residues": "STKPQYQPGEN [SRC_Y530_E527K]", "System under test": "c-Abl (mouse)", "Category": "one"}
{"Ordered residues": "PNRILYGDFRQ [MYH6_Y717]", "System under test": "c-Abl (mouse)", "Category": "two"}
{"Ordered residues": "TSPKSCPSQKH [CAP2_Y316_Y316C]", "System under test": "c-Abl (mouse)", "Category": "two"}
{"Ordered residues": "AVLSLYASGST [ACTG2_Y144_R148S]", "System under test": "c-Abl (mouse)", "Category": "two"}
{"Ordered residues": "SQGRQYQELPR [KCNH2_Y1009_R1005Q]", "System under test": "c-Abl (mouse)", "Category": "one"}
{"Ordered residues": "NDDDVYLSLEE [VAV2_Y142_R143L]", "System under test": "c-Abl (mouse)", "Category": "three"}
{"Ordered residues": "PDKRIYQFTAS [SKAP2_Y197_A202S]", "System under test": "c-Abl (mouse)", "Category": "one"}
{"Ordered residues": "FGVVGYLAIMF [RNF175_Y155]", "System under test": "c-Abl (mouse)", "Category": "three"}
{"Ordered residues": "LSSNLYFRWLT [CNGA3_Y168_P163L_YF]", "System under test": "c-Abl (mouse)", "Category": "three"}
{"Ordered residues": "NVGGKYSFLKV [GRM3_Y478_YF]", "System under test": "c-Abl (mouse)", "Category": "one"}
{"Ordered residues": "LAVGDYMRRQK [ATM_Y1915_V1913G]", "System under test": "c-Abl (mouse)", "Category": "one"}
{"Ordered residues": "QRCYVYYYSYL [PTEN_Y176_R173C]", "System under test": "c-Abl (mouse)", "Category": "three"}
{"Ordered residues": "HHLSTYTKMLF [CHST8_Y251_R247H]", "System under test": "c-Abl (mouse)", "Category": "two"}
{"Ordered residues": "YSGDYYRIQGR [DDR2_Y741]", "System under test": "c-Abl (mouse)", "Category": "three"}
{"Ordered residues": "EGTATYAAAIL [JUP_Y644_V648I]", "System under test": "c-Abl (mouse)", "Category": "three"}
{"Ordered residues": "DDKQPYEKKAA [HMGB1_Y144]", "System under test": "c-Abl (mouse)", "Category": "one"}
{"Ordered residues": "FADGVYQALEE [DUOX2_Y70_YF]", "System under test": "c-Abl (mouse)", "Category": "two"}
{"Ordered residues": "SSPQLYLVPFL [TAF4_Y652_P651L]", "System under test": "c-Abl (mouse)", "Category": "three"}
{"Ordered residues": "NAGDFYDLFGG [PTPN11_Y63_T59A_YF]", "System under test": "c-Abl (mouse)", "Category": "two"}
{"Ordered residues": "HLLRIYFDITD [MMP27_Y307_W304L_YF]", "System under test": "c-Abl (mouse)", "Category": "three"}
{"Ordered residues": "FSGQVYRQRRK [TH_Y230_D227G]", "System under test": "c-Abl (mouse)", "Category": "two"}
{"Ordered residues": "FCRITYDIFPF [INTS13_Y67_M66T_YF]", "System under test": "c-Abl (mouse)", "Category": "three"}
{"Ordered residues": "VEYAKYGSLQG [RET_Y809_R813Q]", "System under test": "c-Abl (mouse)", "Category": "one"}
{"Ordered residues": "SENAFYLSPHI [COL6A3_Y2827_D2831H]", "System under test": "c-Abl (mouse)", "Category": "three"}
{"Ordered residues": "YEEDSYVKRSQ [RET_Y905]", "System under test": "c-Abl (mouse)", "Category": "two"}
{"Ordered residues": "RPAPQYPHQVP [ADAM12_Y895]", "System under test": "c-Abl (mouse)", "Category": "three"}
{"Ordered residues": "RREWFYEVIIV [BACE1_Y260_YF]", "System under test": "c-Abl (mouse)", "Category": "two"}
{"Ordered residues": "GDFFRSLAEVA [YWHAG_Y133_Y133S_YF]", "System under test": "c-Abl (mouse)", "Category": "two"}
{"Ordered residues": "NFSKMYCNPDA [KNL1_Y489_A486S_YF]", "System under test": "c-Abl (mouse)", "Category": "two"}
{"Ordered residues": "YIPSNYVAEDR [FRK_Y104]", "System under test": "c-Abl (mouse)", "Category": "two"}
{"Ordered residues": "ANNQRYAFMPL [TMEM87B_Y460]", "System under test": "c-Abl (mouse)", "Category": "one"}
{"Ordered residues": "LNPDGYEKAFE [CPXM2_Y427_YF]", "System under test": "c-Abl (mouse)", "Category": "three"}
{"Ordered residues": "ECKASYPGKIT [PRSS3_Y232]", "System under test": "c-Abl (mouse)", "Category": "one"}
{"Ordered residues": "PLKALYLQQRP [ATM_Y2969]", "System under test": "c-Abl (mouse)", "Category": "three"}
{"Ordered residues": "DKGTLYIVEQI [PLBD1_Y375]", "System under test": "c-Abl (mouse)", "Category": "two"}
{"Ordered residues": "IYQASYYRRGD [LTK_Y676_R673Q]", "System under test": "c-Abl (mouse)", "Category": "three"}
{"Ordered residues": "IVFTSYFLTIL [TAS2R16_Y239]", "System under test": "c-Abl (mouse)", "Category": "three"}
{"Ordered residues": "VSRGRYRPQEC [B4GALT4_Y113]", "System under test": "c-Abl (mouse)", "Category": "one"}
{"Ordered residues": "MIRSAYALRGL [CPS1_Y590_G593R]", "System under test": "c-Abl (mouse)", "Category": "one"}
{"Ordered residues": "ANSPVYVPTTR [GATA6_Y188_S184N]", "System under test": "c-Abl (mouse)", "Category": "one"}
{"Ordered residues": "NVTRKYTRQIL [MAP3K2_Y463]", "System under test": "c-Abl (mouse)", "Category": "one"}
{"Ordered residues": "EDAHHYLCKEV [JAK2_Y382_A377E]", "System under test": "c-Abl (mouse)", "Category": "two"}
{"Ordered residues": "NTGVYYDLYGG [PTPN11_Y63_D61V]", "System under test": "c-Abl (mouse)", "Category": "two"}

* * *

System under test: MERTK (UniProt Q12866)
Sequence (Q12866 whole entry, looked up): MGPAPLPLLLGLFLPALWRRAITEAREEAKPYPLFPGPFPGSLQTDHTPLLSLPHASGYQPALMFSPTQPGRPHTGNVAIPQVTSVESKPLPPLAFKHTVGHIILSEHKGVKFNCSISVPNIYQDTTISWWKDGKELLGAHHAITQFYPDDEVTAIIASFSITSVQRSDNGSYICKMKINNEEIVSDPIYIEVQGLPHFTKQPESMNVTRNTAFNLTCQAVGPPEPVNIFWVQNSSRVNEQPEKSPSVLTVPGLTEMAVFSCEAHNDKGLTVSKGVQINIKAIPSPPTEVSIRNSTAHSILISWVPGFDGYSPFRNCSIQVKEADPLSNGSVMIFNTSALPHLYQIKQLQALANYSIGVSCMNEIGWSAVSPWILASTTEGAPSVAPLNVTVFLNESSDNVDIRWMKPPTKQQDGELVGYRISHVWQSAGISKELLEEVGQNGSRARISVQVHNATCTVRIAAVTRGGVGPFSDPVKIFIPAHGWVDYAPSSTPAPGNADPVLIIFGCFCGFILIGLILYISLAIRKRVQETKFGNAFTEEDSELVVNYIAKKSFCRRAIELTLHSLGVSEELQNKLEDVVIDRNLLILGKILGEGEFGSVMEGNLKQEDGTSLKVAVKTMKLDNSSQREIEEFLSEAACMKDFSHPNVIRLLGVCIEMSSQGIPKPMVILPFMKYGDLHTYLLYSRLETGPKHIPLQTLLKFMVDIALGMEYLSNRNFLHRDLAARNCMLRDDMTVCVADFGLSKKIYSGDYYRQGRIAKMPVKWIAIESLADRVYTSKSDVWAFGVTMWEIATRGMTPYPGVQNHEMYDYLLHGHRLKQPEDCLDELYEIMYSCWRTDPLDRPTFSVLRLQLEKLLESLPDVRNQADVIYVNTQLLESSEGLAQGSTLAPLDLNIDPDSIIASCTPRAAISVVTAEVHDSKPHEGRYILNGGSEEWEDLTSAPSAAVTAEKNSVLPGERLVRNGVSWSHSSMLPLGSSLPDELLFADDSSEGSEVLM
Measurement description: phosphorylation enrichment, bacterial display (enrichment ratio); higher = better substrate or ligand; peptides without Tyr show the background
Assign Satisfied whenever phosphorylation enrichment does not fall below 0.5; assign Not satisfied whenever it does.

{"Ordered residues": "LHQSTYQRYDV [SLC7A14_Y693]", "Category": "Not satisfied"}
{"Ordered residues": "TSPKSCPSQKH [CAP2_Y316_Y316C]", "Category": "Not satisfied"}
{"Ordered residues": "SVVVPYEPPEL [TP53_Y220_V225L]", "Category": "Not satisfied"}
{"Ordered residues": "PPSGEYFGHCG [TRIP6_Y275_Q278H]", "Category": "Satisfied"}
{"Ordered residues": "KNSSIYVVANI [VNN1_Y134_N131S]", "Category": "Satisfied"}
{"Ordered residues": "YCRHNYGAVES [HLA-DRB1_Y112_V114A]", "Category": "Satisfied"}
{"Ordered residues": "RPPFTYATLIH [FOXP3_Y342_R347H]", "Category": "Satisfied"}
{"Ordered residues": "LLINKYGLSDH [SCP2_Y151_A155D]", "Category": "Satisfied"}
{"Ordered residues": "RAADFYSQQMA [GBP6_Y334_YF]", "Category": "Satisfied"}
{"Ordered residues": "DSMQSYDLDYP [UNC13B_Y243]", "Category": "Not satisfied"}
{"Ordered residues": "RVILRYVNPGT [LAMA3_Y791]", "Category": "Not satisfied"}
{"Ordered residues": "NTGDDYDLFGG [PTPN11_Y63_Y62D_YF]", "Category": "Not satisfied"}
{"Ordered residues": "AVLSLYASGST [ACTG2_Y144_R148S]", "Category": "Not satisfied"}
{"Ordered residues": "SSREGYVSHHN [FAM83B_Y433]", "Category": "Not satisfied"}
{"Ordered residues": "PSRKDYETFQP [CTNND2_Y1154_YF]", "Category": "Satisfied"}
{"Ordered residues": "DLDPNYVLSSR [CKM_Y125]", "Category": "Not satisfied"}
{"Ordered residues": "KLCHLYQDHMQ [WNT5A_Y86]", "Category": "Not satisfied"}
{"Ordered residues": "LAVGDYMRRQK [ATM_Y1915_V1913G]", "Category": "Not satisfied"}
{"Ordered residues": "DFKIIYIVPMR [SNRNP200_Y540_A542V]", "Category": "Not satisfied"}
{"Ordered residues": "DNPAKYFILES [DPP10_Y512]", "Category": "Satisfied"}
{"Ordered residues": "RLSPEYKQNEI [GJB1_Y243]", "Category": "Satisfied"}
{"Ordered residues": "ADKAAYLQNLN [MYH1_Y389]", "Category": "Satisfied"}
{"Ordered residues": "NTADFYDLFGG [PTPN11_Y63_G60A_YF]", "Category": "Satisfied"}
{"Ordered residues": "EFITRYIASLK [PSMA7_Y110_YF]", "Category": "Not satisfied"}
{"Ordered residues": "AELVQYYMEHH [PTPN11_Y80]", "Category": "Satisfied"}
{"Ordered residues": "GEAEQYVGGGG [FAT4_Y4980]", "Category": "Not satisfied"}
{"Ordered residues": "PPAPRCHHSAV [LZTR1_Y119_Y119C]", "Category": "Satisfied"}
{"Ordered residues": "KLSFSYGWALQ [ALDOB_Y302_R304W]", "Category": "Satisfied"}
